measurement.setup: 313.15 K, Maximal bubble pressure
Provide the reported surface tension liquid-gas of each item.
Give just the numeric value; mN/m need not be written.

Recorded result, CCO , surface tension liquid-gas: 19.5

Recorded result, CCCO , surface tension liquid-gas: 21

Recorded result, CCn1cc[n+](CCOC)c1.O=S(=O)([O-])C(F)(F)F , surface tension liquid-gas: 35.1

Recorded result, CC(C)O , surface tension liquid-gas: 18.7

----------
measurement.setup: 308.15 K, Maximal bubble pressure
reported.property: surface tension liquid-gas (mN/m)
Give just the numeric value; mN/m need not be written.

Recorded result, CCO , surface tension liquid-gas: 20

Recorded result, CCn1cc[n+](CCOC)c1.O=S(=O)([O-])C(F)(F)F , surface tension liquid-gas: 35.3

Recorded result, CCCO , surface tension liquid-gas: 21.4

Recorded result, CC(C)O , surface tension liquid-gas: 19.1

----------
Provide the reported surface tension liquid-gas of each item.
measurement.setup: 293.15 K, Maximal bubble pressure
Give just the numeric value; mN/m need not be written.

Recorded result, CCn1cc[n+](CCOC)c1.O=S(=O)([O-])C(F)(F)F , surface tension liquid-gas: 36.1

Recorded result, CCCO , surface tension liquid-gas: 22.5

Recorded result, CC(C)O , surface tension liquid-gas: 20.2

Recorded result, CCO , surface tension liquid-gas: 21.4

----------
measurement.setup: 303.15 K, Maximal bubble pressure
reported.property: surface tension liquid-gas (mN/m)
Give just the numeric value; mN/m need not be written.

Recorded result, CCn1cc[n+](CCOC)c1.O=S(=O)([O-])C(F)(F)F , surface tension liquid-gas: 35.5

Recorded result, CCO , surface tension liquid-gas: 20.5

Recorded result, CCCO , surface tension liquid-gas: 21.8

Recorded result, CC(C)O , surface tension liquid-gas: 19.5

----------
Provide the reported surface tension liquid-gas of each item.
measurement.setup: 298.15 K, Maximal bubble pressure
Numbers after ± are expanded uncertainties.

Recorded result, CCCO , surface tension liquid-gas: 22.1 ± 1.5 mN/m

Recorded result, CC(C)O , surface tension liquid-gas: 19.8 ± 1.5 mN/m

Recorded result, CCn1cc[n+](CCOC)c1.O=S(=O)([O-])C(F)(F)F , surface tension liquid-gas: 35.8 ± 1.5 mN/m

Recorded result, CCO , surface tension liquid-gas: 20.9 ± 1.5 mN/m

----------
measurement.setup: 318.15 K, Maximal bubble pressure
Provide the reported surface tension liquid-gas of each item.
Give just the numeric value; mN/m need not be written.

Recorded result, CCO [ethanol] , surface tension liquid-gas: 19

Recorded result, CC(C)O [propan-2-ol] , surface tension liquid-gas: 18.4

Recorded result, CCn1cc[n+](CCOC)c1.O=S(=O)([O-])C(F)(F)F , surface tension liquid-gas: 34.9

Recorded result, CCCO [propan-1-ol] , surface tension liquid-gas: 20.6

----------
measurement.setup: 293.15 K; 100 kPa; Liquid; Vibrating tube method
reported.property: mass density (kg/m3)
Give just the numeric value; kg/m3 need not be written.

Recorded result, CCO [ethanol] , mass density: 790.041

Recorded result, CCn1cc[n+](CCOC)c1.O=S(=O)([O-])C(F)(F)F , mass density: 1344.66

Recorded result, CC(C)O [propan-2-ol] , mass density: 785.088

Recorded result, CCCO [propan-1-ol] , mass density: 803.519

----------
Provide the reported mass density of each item.
measurement.setup: 303.15 K; 100 kPa; Liquid; Vibrating tube method
Numbers after ± are expanded uncertainties.
Write down the value, and be sure its unit follows.

Recorded result, CCO , mass density: 781.43 ± 1.3 kg/m3

Recorded result, CCn1cc[n+](CCOC)c1.O=S(=O)([O-])C(F)(F)F , mass density: 1336.17 ± 1.4 kg/m3

Recorded result, CC(C)O , mass density: 776.617 ± 1.3 kg/m3

Recorded result, CCCO , mass density: 795.48 ± 1.3 kg/m3

----------
measurement.setup: 313.15 K; 100 kPa; Liquid; Vibrating tube method
Numbers after ± are expanded uncertainties.
reported.property: mass density
Write down the value, and be sure its unit follows.

Recorded result, CC(C)O [propan-2-ol] , mass density: 767.829 ± 1.3 kg/m3

Recorded result, CCCO [propan-1-ol] , mass density: 787.306 ± 1.3 kg/m3

Recorded result, CCn1cc[n+](CCOC)c1.O=S(=O)([O-])C(F)(F)F , mass density: 1327.77 ± 1.4 kg/m3

Recorded result, CCO [ethanol] , mass density: 772.688 ± 1.3 kg/m3

----------
measurement.setup: 308.15 K; 100 kPa; Liquid; Vibrating tube method
reported.property: mass density (kg/m3)
Give just the numeric value; kg/m3 need not be written.

Recorded result, CCCO , mass density: 791.416

Recorded result, CCO , mass density: 777.078

Recorded result, CC(C)O , mass density: 772.266

Recorded result, CCn1cc[n+](CCOC)c1.O=S(=O)([O-])C(F)(F)F , mass density: 1331.96

----------
Provide the reported mass density of each item.
measurement.setup: 298.15 K; 100 kPa; Liquid; Vibrating tube method
± gives the expanded uncertainty stated by the source.

Recorded result, CCn1cc[n+](CCOC)c1.O=S(=O)([O-])C(F)(F)F , mass density: 1340.41 ± 1.4 kg/m3

Recorded result, CC(C)O [propan-2-ol] , mass density: 780.887 ± 1.3 kg/m3

Recorded result, CCO [ethanol] , mass density: 785.746 ± 1.3 kg/m3

Recorded result, CCCO [propan-1-ol] , mass density: 799.514 ± 1.3 kg/m3

----------
measurement.setup: 288.15 K; 100 kPa; Liquid; Vibrating tube method
reported.property: mass density (kg/m3)
Give just the numeric value; kg/m3 need not be written.

Recorded result, CC(C)O , mass density: 789.224

Recorded result, CCO , mass density: 794.308

Recorded result, CCn1cc[n+](CCOC)c1.O=S(=O)([O-])C(F)(F)F , mass density: 1348.94

Recorded result, CCCO , mass density: 807.507

----------
measurement.setup: 288.15 K, Maximal bubble pressure
Provide the reported surface tension liquid-gas of each item.
Give just the numeric value; mN/m need not be written.

Recorded result, CCO , surface tension liquid-gas: 21.9

Recorded result, CCCO , surface tension liquid-gas: 22.9

Recorded result, CC(C)O , surface tension liquid-gas: 20.6

Recorded result, CCn1cc[n+](CCOC)c1.O=S(=O)([O-])C(F)(F)F , surface tension liquid-gas: 36.3

----------
measurement.setup: 318.15 K; 100 kPa; Liquid; Vibrating tube method
Provide the reported mass density of each item.
Give just the numeric value; kg/m3 need not be written.

Recorded result, CCCO , mass density: 783.149

Recorded result, CCn1cc[n+](CCOC)c1.O=S(=O)([O-])C(F)(F)F , mass density: 1323.6

Recorded result, CCO , mass density: 768.257

Recorded result, CC(C)O , mass density: 763.293
